# System: 126254-015-R-J1-PDC complex spheroid growth, % test/control;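 note: spheroids exposed to compound for seven days; 100% = DMSO vehicle control wells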
# procedure.text: Anticancer human tumor 126254-015-R-J1-PDC patient-derived soft tissue sarcoma cell line growth inhibition [Asc]
# recorded.conditions: second compound 1 µM; first compound 0.1 µM; hits give low values
I'd appreciate it if you could supply viability, T/C values for the items below.
Reply numerically in %, unit not repeated.

Which value of viability, T/C has been reported for C=C(F)C(=O)N1CCN(c2nc(OCC3CCCN3C)nc3c2CCN(c2cccc4cccc(Cl)c24)C3)CC1CC#N (stereo not given) + Cc1c(S(C)(=O)=O)c(-c2cc(F)cc(N3CCN(c4ccc(NS(=O)(=O)c5ccc(NC(CCN6CCC(C(=O)OCCCP(=O)(O)O)CC6)CSc6ccccc6)c(S(=O)(=O)C(F)(F)F)c5)cc4)CC3)c2)c(-c2ccc(Cl)cc2)n1C(C)C in the records?
66.3

Which value of viability, T/C has been reported for CCN1CCN(Cc2ccc(Nc3ncc(F)c(-c4cc(F)c5nc(C)n(C(C)C)c5c4)n3)nc2)CC1 + CNC(C)C(=O)NC1CN(S(=O)(=O)c2cccc(S(=O)(=O)N3CCC4CCC(C(=O)NC(c5ccccc5)c5ccccc5)N4C(=O)C(NC(=O)C(C)NC)C3)c2)CCC2CCC(C(=O)NC(c3ccccc3)c3ccccc3)N2C1=O in the records?
52.6

Which value of viability, T/C has been reported for C=CC(=O)N1CCN(c2nc(=O)n(-c3c(C)ccnc3C(C)C)c3nc(-c4c(O)cccc4F)c(F)cc23)C(C)C1 (stereo not given) + CNC(C)C(=O)NC1CN(S(=O)(=O)c2cccc(S(=O)(=O)N3CCC4CCC(C(=O)NC(c5ccccc5)c5ccccc5)N4C(=O)C(NC(=O)C(C)NC)C3)c2)CCC2CCC(C(=O)NC(c3ccccc3)c3ccccc3)N2C1=O in the records?
72.4

Which value of viability, T/C has been reported for CCN1CCN(Cc2ccc(Nc3ncc(F)c(-c4cc(F)c5nc(C)n(C(C)C)c5c4)n3)nc2)CC1 + Cc1c(S(C)(=O)=O)c(-c2cc(F)cc(N3CCN(c4ccc(NS(=O)(=O)c5ccc(NC(CCN6CCC(C(=O)OCCCP(=O)(O)O)CC6)CSc6ccccc6)c(S(=O)(=O)C(F)(F)F)c5)cc4)CC3)c2)c(-c2ccc(Cl)cc2)n1C(C)C in the records?
86.4

Which value of viability, T/C has been reported for Cn1ncnc1[C@H]1c2n[nH]c(=O)c3cc(F)cc(c23)N[C@@H]1c1ccc(F)cc1 + CNC(C)C(=O)NC1CN(S(=O)(=O)c2cccc(S(=O)(=O)N3CCC4CCC(C(=O)NC(c5ccccc5)c5ccccc5)N4C(=O)C(NC(=O)C(C)NC)C3)c2)CCC2CCC(C(=O)NC(c3ccccc3)c3ccccc3)N2C1=O in the records?
44.1
